Assignment: determine reported IC50 for the given compounds.
target: purified human Hsp90; assay: Binding Assay: fluorescence polarization with BODIPY-labeled geldanamycin; conditions: BODIPY-GM 10 nM, Hsp90 30 nM

Items follow; give IC50 for each.
1. Nc1ncnc2c1nc(Sc1cc3c(cc1Br)OCO3)n2CCc1ccc(Cl)cc1F
2. CN[C@@H](C)C(=O)N1CCC(CCn2c(Sc3cc4c(cc3Br)OCO4)nc3c(N)ncnc32)CC1
3. CC(C)(C)OC(=O)N1C=C(CCn2c(Sc3cc4c(cc3Br)OCO4)nc3c(N)ncnc32)CCC1
4. Nc1ncnc2c1nc(Sc1cc3c(cc1Br)OCO3)n2CC[C@@H]1CCNC1
5. COc1ccc(OC)c(Sc2nc3c(N)ncnc3n2CCc2ccc(Cl)cc2F)c1
6. COc1c(Sc2nc3c(N)ncnc3n2CCC2CCN(C=O)CC2)cc(C)c2c1CCC2
7. Nc1ncnc2c1nc(S(=O)(=O)c1ccc(Cl)cc1)n2CCc1ccccc1
8. CC(C)(C)OC(=O)N1CCCC(CCn2c(Sc3cc4c(cc3Br)OCO4)nc3c(N)ncnc32)C1 (centres unmarked)

1. 230 nM
2. 330 nM
3. 7900 nM
4. 600 nM
5. 450 nM
6. 2000 nM
7. > 10000 nM
8. 325 nM

* * *

Test system: purified human Hsp90
Experiment: Binding Assay: fluorescence polarization with BODIPY-labeled geldanamycin
Conditions: 5 μM compound, BODIPY-GM 10 nM, Hsp90 30 nM
Description: Compound binding to purified Hsp90 was monitored using BODIPY-labeled geldanamycin (BODIPY-GM) in a fluorescence polarization assay adapted from Kim et al. (Journal of Biomolecular Screening 2004, 9(5):375-381). […] Parallel and perpendicular fluorescence measurements were read (LJL BioSystems Analyst AD plate reader) with excitation/emission wavelengths of 485/530 nm. […]
The threshold is inclusive: % Inhibition at 5 μM Compound Concentration of exactly 4% counts as condition met; values below receive condition not met.

molecule="CS(=O)(=O)N1CCCCC1CCn1cnc(N)c2nc(Sc3cc4c(cc3Br)OCO4)nc1-2 (centres unmarked)" classification="condition met"

Quick check: does CCOc1cc(CCn2c(Sc3cc4c(cc3Br)OCO4)nc3c(N)ncnc32)ccc1OC have % Inhibition at 5 μM Compound Concentration greater than or equal to 4%?
condition met

Given Cc1ccccc1CCn1cnc(N)c2nc(Sc3cc4c(cc3Br)OCO4)nc1-2 , state whether its % Inhibition at 5 μM Compound Concentration is at least 4%.
condition met

Does the molecule CC(C)[C@@H]1C[C@H](CCn2cnc(N)c3nc(Sc4cc5c(cc4Br)OCO5)nc2-3)CCN1C(=O)OC(C)(C)C (relative stereo) have recorded % Inhibition at 5 μM Compound Concentration that is 4% or more?
condition met

Given the entry COc1ccc(OC)c(Sc2nc3c(N)ncn(CC(c4ccc(Cl)cc4)C(C)C)c-3n2)c1 (centres unmarked) , answer whether its % Inhibition at 5 μM Compound Concentration meets or surpasses 4%.
condition not met

Form field: % Inhibition at 5 μM Compound Concentration at least 4%? Entry: COC(=O)c1ccnc(Sc2nc3c(N)ncn(CCC4CCN(C=O)CC4)c-3n2)c1
condition not met

Would you say COc1ccc(OC)c(Sc2nc3c(N)ncn(CCc4ccc(-c5ccccc5)cc4)c-3n2)c1 shows % Inhibition at 5 μM Compound Concentration at minimum 4%?
condition met
